- assayProcedure: Pharmacokinetic test of compounds in mice (plasma, LC/MS/MS)
- Assay type: in vivo, male CD-1 mice
- particulars: IV, 3 mg/kg
endpointLabel: Apparent clearance Cl (mL/min/kg)
Your answer is read as mL/min/kg, so omit the unit and give the number.

compound	unitAbbreviation	Apparent clearance Cl
O=C1N[C@@H]2COC[C@@H]2Oc2ncc(F)cc2C2COCCN2c2ccn3ncc1c3n2 (some centres unmarked) [WX005A]	mL/min/kg	9.78
C[C@H]1CNC(=O)c2cnn3ccc(nc23)N2CCOC[C@@H]2c2cc(F)cnc2O1 [WX004B]	mL/min/kg	8.14
O=C(Nc1cnn2ccc(N3CCC[C@@H]3c3cc(F)ccc3F)nc12)N1CC[C@H](O)C1 [LOXO-101, larotrectinib, reference compound]	mL/min/kg	37.4
O=C1NC2(CC2)COc2ncc(F)cc2C2COCCN2c2ccn3ncc1c3n2 (single isomer, unassigned) [WX001B]	mL/min/kg	7.33

Here's the next entry for you.
Entry C[C@@H]1CCc2ncc(F)cc2[C@H]2CCCN2c2ccn3ncc(c3n2)C(=O)N1 [LOXO-195, reference compound] ; Apparent clearance Cl = 11.8

----------
# AUC(0-t) per entry
- assayProcedure: Pharmacokinetic test of compounds in mice (plasma, LC/MS/MS)
- Assay type: in vivo, male CD-1 mice
- particulars: male, CD-1, mouse, plasma, PO, 10 mg/kg, read-out: Area under the curve AUC0-last
- Method: Experimental purpose: male CD-1 mice aged 7-9 weeks were selected as test animals, and the drug concentrations of the compounds in plasma at different time points after single intravenous injection (IV) and intragastric administration (PO) of the compounds were measured by an LC/MS/MS method, so that the pharmacokinetic behavior of the compounds disclosed herein in mice was studied, and the pharmacokinetic characteristic of the compounds was evaluated. […]
# number only, unit µM·h dropped from output

In plain terms, O=C(Nc1cnn2ccc(N3CCC[C@@H]3c3cc(F)ccc3F)nc12)N1CC[C@H](O)C1 [LOXO-101, larotrectinib, reference compound] has a documented AUC(0-t) of 2.89

// field: AUC(0-t); key: O=C1N[C@@H]2COC[C@@H]2Oc2ncc(F)cc2C2COCCN2c2ccn3ncc1c3n2 (stereo partly shown) [WX005A] ; value = 21.4

C[C@@H]1CCc2ncc(F)cc2[C@H]2CCCN2c2ccn3ncc(c3n2)C(=O)N1 [LOXO-195, reference compound] yielded AUC(0-t) of 27.3

In plain terms, O=C1NC2(CC2)COc2ncc(F)cc2C2COCCN2c2ccn3ncc1c3n2 (single isomer, unassigned) [WX001B] has a documented AUC(0-t) of 49.1

----------
- experimentalSystem: TrkC (Homo sapiens, UniProt Q16288)
- Construct: purchased Reaction Biology Corp
- Sequence (Q16288 32-839): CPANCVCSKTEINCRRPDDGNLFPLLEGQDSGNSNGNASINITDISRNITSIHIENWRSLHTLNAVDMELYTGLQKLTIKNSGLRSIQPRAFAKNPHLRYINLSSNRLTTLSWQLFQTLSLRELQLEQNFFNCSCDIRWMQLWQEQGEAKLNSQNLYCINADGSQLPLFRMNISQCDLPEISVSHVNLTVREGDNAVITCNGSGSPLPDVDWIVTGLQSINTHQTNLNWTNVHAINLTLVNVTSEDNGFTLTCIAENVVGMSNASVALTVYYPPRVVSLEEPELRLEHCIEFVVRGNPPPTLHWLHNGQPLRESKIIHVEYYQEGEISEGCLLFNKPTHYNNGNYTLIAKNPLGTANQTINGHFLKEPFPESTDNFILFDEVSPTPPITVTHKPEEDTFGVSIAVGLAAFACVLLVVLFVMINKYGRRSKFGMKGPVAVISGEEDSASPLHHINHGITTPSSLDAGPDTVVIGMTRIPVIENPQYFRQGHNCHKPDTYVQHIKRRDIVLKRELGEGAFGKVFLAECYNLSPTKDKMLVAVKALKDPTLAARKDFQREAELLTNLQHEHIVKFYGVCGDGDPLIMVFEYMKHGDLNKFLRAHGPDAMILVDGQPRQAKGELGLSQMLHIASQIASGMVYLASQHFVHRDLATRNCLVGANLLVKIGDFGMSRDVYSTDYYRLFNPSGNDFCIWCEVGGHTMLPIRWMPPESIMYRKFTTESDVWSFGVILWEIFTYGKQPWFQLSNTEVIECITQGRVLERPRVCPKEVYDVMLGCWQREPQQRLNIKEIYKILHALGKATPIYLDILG
- assayProcedure: Kinase inhibitory activity (33P-ATP, filtration-binding method, Reaction Biology Corp.)
- Type: biochemical
endpointLabel: IC50 (pM)
Respond numerically; units are pM and should not be typed.

What the record says about O=C1NC2(CC2)COc2ncc(F)cc2C2COCCN2c2ccn3ncc1c3n2 (single isomer, unassigned) [WX001B] : IC50 is 200

----------
Below is a list of entries, each paired with its recorded GI50 value.
- experimentalSystem: Ba/F3 SLC34A2-ROS1-WT (Homo sapiens)
- Construct: fused on or other part: N-terminal part of SLC34A2 as fusion partner (part of the key); O95436 (Sodium-dependent phosphate transport protein 2B)
- Sequence (P08922 whole entry, change not shown, the tested form may be a part): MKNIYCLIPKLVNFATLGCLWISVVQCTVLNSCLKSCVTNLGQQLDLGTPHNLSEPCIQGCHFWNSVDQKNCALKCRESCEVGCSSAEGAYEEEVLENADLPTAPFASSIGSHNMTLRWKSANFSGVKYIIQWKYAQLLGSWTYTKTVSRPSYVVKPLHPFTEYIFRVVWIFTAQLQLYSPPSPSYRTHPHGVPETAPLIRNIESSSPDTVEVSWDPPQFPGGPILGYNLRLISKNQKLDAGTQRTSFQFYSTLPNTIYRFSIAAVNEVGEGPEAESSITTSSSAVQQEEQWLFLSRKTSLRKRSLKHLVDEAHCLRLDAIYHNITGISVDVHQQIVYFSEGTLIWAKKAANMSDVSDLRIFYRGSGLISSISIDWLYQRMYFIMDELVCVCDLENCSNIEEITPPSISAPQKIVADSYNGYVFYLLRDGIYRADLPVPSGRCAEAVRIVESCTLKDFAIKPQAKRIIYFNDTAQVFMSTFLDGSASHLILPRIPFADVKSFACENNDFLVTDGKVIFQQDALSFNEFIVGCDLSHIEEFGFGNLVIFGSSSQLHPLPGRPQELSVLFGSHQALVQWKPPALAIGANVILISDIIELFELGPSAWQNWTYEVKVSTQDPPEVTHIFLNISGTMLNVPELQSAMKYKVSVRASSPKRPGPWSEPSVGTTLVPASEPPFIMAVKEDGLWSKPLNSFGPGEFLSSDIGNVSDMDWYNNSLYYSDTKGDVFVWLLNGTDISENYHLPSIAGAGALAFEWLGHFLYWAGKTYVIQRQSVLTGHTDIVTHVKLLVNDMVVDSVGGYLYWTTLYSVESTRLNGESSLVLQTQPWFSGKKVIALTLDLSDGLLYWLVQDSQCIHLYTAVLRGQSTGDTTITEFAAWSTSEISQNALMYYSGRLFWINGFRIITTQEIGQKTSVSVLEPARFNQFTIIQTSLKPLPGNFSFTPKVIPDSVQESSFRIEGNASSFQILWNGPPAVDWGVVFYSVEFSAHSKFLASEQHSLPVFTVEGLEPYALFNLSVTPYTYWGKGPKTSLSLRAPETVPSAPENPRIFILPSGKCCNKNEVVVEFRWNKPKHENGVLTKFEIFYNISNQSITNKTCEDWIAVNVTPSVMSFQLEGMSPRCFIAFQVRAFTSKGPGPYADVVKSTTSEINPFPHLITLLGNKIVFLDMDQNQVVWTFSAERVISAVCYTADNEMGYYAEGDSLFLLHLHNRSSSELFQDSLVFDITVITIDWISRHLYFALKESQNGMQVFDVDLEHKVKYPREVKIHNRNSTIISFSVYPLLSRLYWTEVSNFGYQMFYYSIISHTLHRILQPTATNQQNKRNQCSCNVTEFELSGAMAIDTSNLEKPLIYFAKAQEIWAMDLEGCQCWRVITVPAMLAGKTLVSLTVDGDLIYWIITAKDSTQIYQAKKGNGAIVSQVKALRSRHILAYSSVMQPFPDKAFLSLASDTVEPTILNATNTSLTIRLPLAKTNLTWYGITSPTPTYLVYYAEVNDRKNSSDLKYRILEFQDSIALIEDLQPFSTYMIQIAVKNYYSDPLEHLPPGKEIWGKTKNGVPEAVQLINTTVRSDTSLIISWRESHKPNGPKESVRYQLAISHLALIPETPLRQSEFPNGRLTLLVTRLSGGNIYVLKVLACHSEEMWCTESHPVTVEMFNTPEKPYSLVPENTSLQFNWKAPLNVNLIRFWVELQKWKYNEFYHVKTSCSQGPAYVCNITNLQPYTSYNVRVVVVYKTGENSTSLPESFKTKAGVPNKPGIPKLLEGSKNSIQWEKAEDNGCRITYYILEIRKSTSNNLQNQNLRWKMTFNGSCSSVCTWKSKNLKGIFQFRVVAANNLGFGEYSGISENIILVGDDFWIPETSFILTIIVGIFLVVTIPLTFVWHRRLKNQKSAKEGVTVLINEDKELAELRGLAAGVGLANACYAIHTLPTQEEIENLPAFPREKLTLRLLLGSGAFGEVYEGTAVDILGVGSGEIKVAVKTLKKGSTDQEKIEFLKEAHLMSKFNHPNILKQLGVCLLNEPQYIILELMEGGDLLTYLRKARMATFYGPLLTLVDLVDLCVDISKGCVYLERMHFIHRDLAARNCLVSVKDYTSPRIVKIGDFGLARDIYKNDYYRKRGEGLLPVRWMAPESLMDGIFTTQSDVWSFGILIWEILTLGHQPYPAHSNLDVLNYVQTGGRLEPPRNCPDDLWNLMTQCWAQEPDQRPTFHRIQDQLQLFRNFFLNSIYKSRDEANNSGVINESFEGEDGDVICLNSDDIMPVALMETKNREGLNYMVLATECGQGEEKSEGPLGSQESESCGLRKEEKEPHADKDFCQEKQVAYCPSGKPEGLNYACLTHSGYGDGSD
- assayProcedure: Inhibitory activity against cell proliferation (CellTiter-Glo, 72 hours)
- Type: cell-based
- particulars: read-out: Half maximal inhibitory concentration IC50 of cells, Ba/F3 SLC34A2-ROS1-WT
Field: numeric (nM). Do not append units.

compound	endpointLabel	unitAbbreviation	measured
O=C1NC2(CC2)COc2ccc(F)cc2C2CCCCN2c2ccn3ncc1c3n2 (single isomer, unassigned) [WX002A]	GI50	nM	12.6
C[C@@H]1CCc2ncc(F)cc2[C@H]2CCCN2c2ccn3ncc(c3n2)C(=O)N1 [LOXO-195, reference compound]	GI50	nM	36.7
C[C@@H]1COc2ncc(F)cc2[C@H]2COC[C@@H](C)N2c2ccn3ncc(c3n2)C(=O)N1	GI50	nM	900
O=C1NC2(CC2)COc2ncc(F)cc2[C@H]2CCOCCN2c2ccn3ncc1c3n2 [WX009A]	GI50	nM	50
O=C1N[C@@H]2COC[C@@H]2Oc2ncc(F)cc2C2COCCN2c2ccn3ncc1c3n2 (stereo partly drawn) [WX005A]	GI50	nM	246

Memo: "C[C@@H]1COC[C@@H]2c3cc(F)cnc3OCC3(CC3)NC(=O)c3cnn4ccc(nc34)N12" , reported GI50: 770

Value of measured GI50 for the entry O=C1NC2(CC2)COc2ncc(F)cc2C2COCCN2c2ccn3ncc1c3n2 (single isomer, unassigned) [WX001B] : 64.2
